# Test system: MRSA 1584
# protocol-description: Mode of antimicrobial action with gentamicin, aac(6')/aph(2')-positive strain
# Type: cell-based, Staphylococcus aureus
# condition: MRSA 1584 (aac(6')/aph(2')); with gentamicin 1 mg/L
measure-name: MIC, Gentamicin [1 mg/L] yes (µM)

compound	recorded-number
O=c1cc(-c2ccc(O)c(O)c2)oc2c(Nc3ccc(C(F)(F)F)cc3)c(O)cc(O)c12 [compound 14]	26.1
O=c1cc(-c2ccc(O)c(O)c2)oc2cc(O)cc(O)c12 [compound 10, luteolin, reference compound]	7.6
O=c1cc(-c2ccc(O)c(O)c2)oc2c(Nc3ccc(F)cc3)c(O)cc(O)c12 [compound 11]	15.7
COc1ccc(Nc2c(O)cc(O)c3c(=O)cc(-c4ccc(O)c(O)c4)oc23)cc1 [compound 12]	47.1
O=c1c(O)c(-c2ccc(O)c(O)c2)oc2c(Nc3ccc(F)cc3)c(O)cc(O)c12 [compound 5]	28.2
O=c1cc(-c2ccc(O)c(O)c2)oc2c(Nc3ccccc3)c(O)cc(O)c12 [compound 13]	49.9

###

Entries and their IC50 values follow.
# Test system: immortalized human keratinocytes (HaCaT)
# protocol-description: Cytotoxicity (resazurin assay), keratinocytes
# Format: cell-based
# condition: Homo sapiens, HaCaT, 72 h, read-out: HaCaT IC50 (concentration that halved the viability)
measure-name: IC50 (µM)

compound	measure-name	recorded-number
O=c1cc(-c2ccc(O)c(O)c2)oc2c(Nc3ccc(C(F)(F)F)cc3)c(O)cc(O)c12	IC50	26.8
O=c1c(O)c(-c2ccc(O)c(O)c2)oc2cc(O)cc(O)c12 [compound 4, quercetin, reference compound]	IC50	127
O=c1cc(-c2ccc(O)c(O)c2)oc2c(Nc3ccc(F)cc3)c(O)cc(O)c12	IC50	76.9
O=c1cc(-c2ccc(O)c(O)c2)oc2cc(O)cc(O)c12 [compound 10, luteolin, reference compound]	IC50	34.7
O=c1c(O)c(-c2ccc(O)c(O)c2)oc2c(Nc3ccc(C(F)(F)F)cc3)c(O)cc(O)c12	IC50	117

###

# Tested on: S. aureus CCM 4223
# protocol-description: Antibacterial activity, antibiotic-sensitive strain
# Assay type: cell-based
# condition: Staphylococcus aureus, CCM4223, three repetitions ± SEM
Entries and their IC50 values follow.
measure-name: IC50

compound	experimental-system	result
O=c1cc(-c2ccc(O)c(O)c2)oc2cc(O)cc(O)c12 [compound 10, luteolin, reference compound]	S. aureus CCM 4223	> 200 µM
COc1cc(Nc2c(O)cc(O)c3c(=O)c(O)c(-c4ccc(O)c(O)c4)oc23)cc(OC)c1 [compound 9]	S. aureus CCM 4223	> 200 µM
O=c1c(O)c(-c2ccc(O)c(O)c2)oc2cc(O)cc(O)c12 [compound 4, quercetin, reference compound]	S. aureus CCM 4223	> 200 µM

###

# System: Staphylococcus aureus MRSA 9
# protocol-description: Modulation of antibiotic-resistant phenotype (flavonoid plus breakpoint concentration of antibiotic)
# Assay type: cell-based
# condition: gentamicin at breakpoint concentration 1 mg/L; MIC determined as IC70; three repetitions ± SEM
measure-name: minimum inhibitory concentration (MIC) in the presence of gentamicin

compound	experimental-system	result
O=c1c(O)c(-c2ccc(O)c(O)c2)oc2cc(O)cc(O)c12 [compound 4, quercetin, reference compound]	Staphylococcus aureus MRSA 9	>200 ^note 1 μM
COc1cc(Nc2c(O)cc(O)c3c(=O)c(O)c(-c4ccc(O)c(O)c4)oc23)cc(OC)c1	Staphylococcus aureus MRSA 9	>200 µM
COc1ccc(Nc2c(O)cc(O)c3c(=O)c(O)c(-c4ccc(O)c(O)c4)oc23)cc1	Staphylococcus aureus MRSA 9	>200 ^note 2 μM
